Test: Displacement of [3H]2-tert-butoxy-2-(2-methyl-4-p-tolylquinolin-3-yl)acetic acid from LEDGF binding site of HIV1 integrase
Parameters: species or system Human immunodeficiency virus 1
Reported IC50 values are given for each entry in this list.

{"given smiles": "Cc1nc2cc(-c3ncc(Cc4ccc(F)cc4)s3)nn2c(-c2cc(F)c3c(c2C)CCCO3)c1[C@H](OC(C)(C)C)C(=O)O", "IC50 [nM]": 15}
{"given smiles": "Cc1nc2cc(C(=O)NCc3ccc(F)cc3)nn2c(-c2cc(F)c3c(c2C)CCCO3)c1[C@H](OC(C)(C)C)C(=O)O", "IC50 [nM]": 44}
{"given smiles": "Cc1nc2cc(-c3nc(Cc4ccc(F)cc4)no3)nn2c(-c2cc(F)c3c(c2C)CCCO3)c1[C@H](OC(C)(C)C)C(=O)O", "IC50 [nM]": 117}
{"given smiles": "Cc1nc2cc(C(=O)NCc3ccc(F)c(C4CC4)c3)nn2c(-c2cc(F)c3c(c2C)CCCO3)c1[C@H](OC(C)(C)C)C(=O)O", "IC50 [nM]": 65}

----------
Reported Vd values are given for each entry in this list.
Assay: Volume of distribution at steady state in Sprague-Dawley rat at 1 mg/kg, iv
Format: ADME, organism-based
Settings: in vivo, read-out: Vdss
assay endpoint: Vd (L/kg)

{"given smiles": "Cc1cc(CNC(=O)c2cc3nc(C)c([C@H](OC(C)(C)C)C(=O)O)c(-c4cc(F)c5c(c4C)CCCO5)n3n2)ccc1F", "assay endpoint": "Vd", "unit tag": "L/kg", "data value": 0.6}
{"given smiles": "Cc1nc2cc(C(=O)NCCC(C)(C)C)nn2c(-c2cc(F)c3c(c2C)CCCO3)c1[C@H](OC(C)(C)C)C(=O)O", "assay endpoint": "Vd", "unit tag": "L/kg", "data value": 0.6}
{"given smiles": "Cc1nc2cc(-c3ncc(Cc4ccc(F)cc4)s3)nn2c(-c2cc(F)c3c(c2C)CCCO3)c1[C@H](OC(C)(C)C)C(=O)O", "assay endpoint": "Vd", "unit tag": "L/kg", "data value": 3.3}

----------
Assay: Cytotoxicity against human MT2 cells
Type: cell-based

{"given smiles": "Cc1nc2cc(C(=O)NCC3CCOCC3)nn2c(-c2cc(F)c3c(c2C)CCCO3)c1[C@H](OC(C)(C)C)C(=O)O", "CC50": "> 40 µM"}
{"given smiles": "Cc1nc2cc(-c3nc(Cc4ccc(F)cc4)no3)nn2c(-c2cc(F)c3c(c2C)CCCO3)c1[C@H](OC(C)(C)C)C(=O)O", "CC50": "> 20 µM"}
{"given smiles": "Cc1nc2cc(-c3ncc(Cc4ccc(F)cc4)o3)nn2c(-c2cc(F)c3c(c2C)CCCO3)c1[C@H](OC(C)(C)C)C(=O)O", "CC50": "> 20 µM"}
{"given smiles": "CCCNC(=O)c1cc2nc(C)c([C@H](OC(C)(C)C)C(=O)O)c(-c3cc(F)c4c(c3C)CCCO4)n2n1", "CC50": "> 40 µM"}
{"given smiles": "Cc1nc2cc(C(=O)NCc3ccc(F)c(C4CC4)c3)nn2c(-c2cc(F)c3c(c2C)CCCO3)c1[C@H](OC(C)(C)C)C(=O)O", "CC50": "> 40 µM"}
{"given smiles": "COc1cc(CNC(=O)c2cc3nc(C)c([C@H](OC(C)(C)C)C(=O)O)c(-c4cc(F)c5c(c4C)CCCO5)n3n2)ccc1F", "CC50": "> 20 µM"}
{"given smiles": "Cc1nc2cc(C(=O)NCCC(C)C)nn2c(-c2cc(F)c3c(c2C)CCCO3)c1[C@H](OC(C)(C)C)C(=O)O", "CC50": "> 40 µM"}
{"given smiles": "Cc1nc2cc(C(=O)NCc3ccc(F)cc3N3CCCC3=O)nn2c(-c2cc(F)c3c(c2C)CCCO3)c1[C@H](OC(C)(C)C)C(=O)O", "CC50": "> 40 µM"}
{"given smiles": "Cc1nc2cc(C(=O)NCCC3CCCCC3)nn2c(-c2cc(F)c3c(c2C)CCCO3)c1[C@H](OC(C)(C)C)C(=O)O", "CC50": "> 40 µM"}
{"given smiles": "Cc1nc2cc(C(=O)NCCC(C)(C)C)nn2c(-c2cc(F)c3c(c2C)CCCO3)c1[C@H](OC(C)(C)C)C(=O)O", "CC50": "> 40 µM"}

----------
Assay: Metabolic stability in rat liver microsomes assessed as parent compound remaining at 0.5 uM incubated for 10 mins
Type: ADME, Microsome
Conditions: read-out: Stabilty

{"given smiles": "Cc1nc2cc(-c3ncc(Cc4ccc(F)cc4)s3)nn2c(-c2cc(F)c3c(c2C)CCCO3)c1[C@H](OC(C)(C)C)C(=O)O", "remaining at 10 min, 0.5 µM [%]": 100}
{"given smiles": "Cc1cc(CNC(=O)c2cc3nc(C)c([C@H](OC(C)(C)C)C(=O)O)c(-c4cc(F)c5c(c4C)CCCO5)n3n2)ccc1F", "remaining at 10 min, 0.5 µM [%]": 96}
{"given smiles": "Cc1nc2cc(C(=O)NCCC(C)(C)C)nn2c(-c2cc(F)c3c(c2C)CCCO3)c1[C@H](OC(C)(C)C)C(=O)O", "remaining at 10 min, 0.5 µM [%]": 86}
